Where do the numbers come from? From paper PMC7714403.

# Tested on: MOLM13 cells
# procedureSummary: MOLM13 viability ± coculture with HS5-GFP MSCs (MTT)
# Assay type: cell-based
# experimentalConditions: Homo sapiens, MOLM-13, MOLM13 alone (co-culture experiment); read-out: IC50 viability
# Description: Drug treatments were carried out for 72 hours. Details are provided in the Supplemental Methods. […] HS5-GFP human bone marrow stromal cells were plated and cultured for 72 hours to near confluence. MOLM13 cells were then seeded onto HS5-GFP cells to establish a co-culture. Twenty-four hours later, cells were treated with increasing concentrations of drug for an additional 72 hours. MOLM13 and HS5-GFP cells […]
metricName: pIC50
Keep in mind that pIC50 stands for -log10 of concentration in molar terms.

**Q:** Kindly indicate its recorded pIC50. Item: CN1CCN(Cc2ccc(Nc3ncc(Cl)c(Nc4ccccc4S(=O)(=O)N(C)C)n3)cc2)CC1 [TP-0903]
**A:** 7.51

**Q:** Answer with reported pIC50 of CNC(=O)c1cc(Oc2ccc(NC(=O)Nc3ccc(Cl)c(C(F)(F)F)c3)cc2)ccn1 [Sorafenib, sorafenib]
**A:** 7.85

**Q:** Entry CCc1nc(C(N)=O)c(Nc2ccc(N3CCC(N4CCN(C)CC4)CC3)c(OC)c2)nc1NC1CCOCC1 [Gilteritinib, gilteritinib] needs its pIC50 filled in; supply it.
**A:** 7.77

**Q:** Annotate the compound CC1(COc2ccc3c(c2)ncn3-c2ccc3cccc(N4CCC(N)CC4)c3n2)COC1 [Crenolanib, crenolanib] with its measured pIC50.
**A:** 8.30
